The reported measurements were obtained from a melting point compilation (Tetko et al.; mined from patent text by program, amines drawn as free bases though some values may be those of a salt).

Property: melting point; scope: individual compounds

| compound | reported_measurement |
| --- | --- |
| CCCc1ccccc1OCCCOc1ccc2c(=O)cc(C(=O)O)oc2c1 | 164 to 166 °C |
| CC(=O)NCCN1CCc2cc(NC(=O)c3ccccc3-c3ccc(C(F)(F)F)cc3)ccc2C1 | 163 °C |

### Prompt State the recorded melting point for this entry: `O=S(=O)(Nc1ccccc1COc1cccc2cccnc12)c1ccc(F)cc1`
### Response 121 to 122 °C

### Prompt // query melting point value for entry `CS(=O)(=O)c1ccc(C2=C(Br)C(=O)C3(CCCC3)O2)cc1`
### Response 127 to 128 °C

### Prompt // lookup melting point for `CC(=O)[C@H]1CC=C(C)C(=O)C1`
### Response 35 °C

### Prompt For the compound shown here, NCC1CN(c2cc(F)c(-c3cccnc3)c(F)c2)C(=O)O1 (stereo not given) , give the reported melting point.
### Response 143 to 145 °C

### Prompt What value of measured melting point is listed for `O=Cc1c2ccccc2cc2cc3ccccc3cc12` ?
### Response 163 to 164 °C

----------
Each item that follows carries a reported melting point.

Example results:
| compound | melting point |
| --- | --- |
| Nc1ncccc1-c1nc2ccc(Cl)nc2n1-c1ccc(CNC(=O)c2cccc(F)c2)cc1 | 240 to 243 °C |
| CC(C)(F)[C@H]1C(=O)N[C@@H]1CC(=O)O (racemic) | 118 to 122 °C |
| CC(C)(C)OC(=O)n1cc(C(=O)C2CSC(c3cccnc3)N2C(N)=O)c2ccccc21 (centres undefined) | 141 to 143 °C |
| CCOC(=O)C1=C(C)NC(C)=C(C(=O)OCC)C1c1csc2ccccc12 | 139 to 142 °C |
| NC(=O)CNC(=O)c1cccc(-c2cccc3cc(COc4cc(Cl)cc(Cl)c4)sc23)c1 | 164 to 165 °C |
| CC(=O)Nc1ccc(S(=O)(=O)N(CCCl)CCCl)cc1 | 113 to 114 °C |

### Prompt Look up melting point: CCCCCCCCCCCCCCCCCCNC(=O)OCC(CNS(=O)(=O)CCCI)OC(=O)NC (centres undefined)
### Response 97 to 99 °C

### Prompt What value of melting point has been reported for the following compound? `Cc1c(CO)nc2n1CCc1ccccc1C2=C1CCN(C)CC1`
### Response 167 °C

### Prompt Recorded melting point of O=C1c2ccccc2C(=O)N1CC(=O)N1c2ccccc2N(Cc2ccccc2)C(=O)[C@H]2CCCC[C@H]21 (relative stereo) , please.
### Response 241 to 242 °C

----------
endpoint_name: melting point

| compound | reported_measurement |
| --- | --- |
| Cc1ccc(N2C(=O)C(O)=C(C(=O)c3ccc(C(C)C)cc3)C2c2ccc(Cl)cc2)nn1 (stereo not given) | 258 to 260 °C |
| O=C(C(=O)N1CCCCC1)C(Cl)Cl | < 50 °C |
| CCc1cc2c(s1)N(C)C(=O)C(OC(=O)Nc1cccc(C)c1)N=C2c1ccccc1Cl (stereo not given) | 181 to 182 °C |
| CCCNC(=O)NS(=O)(=O)c1ccccc1-c1ccc(Cn2c(CCC)nc(C)c2C(=S)OCC)cc1 | 160 to 165 °C |
| COc1ccccc1-n1c(=O)[nH]c2c(C(N)=O)nc(-n3cnc4ccccc43)nc21 | 318 to 319 °C |

### Prompt Requested field: melting point. Item: CC(=O)NNC(COCc1cc(C)cc(C)c1)C1c2ccccc2C=Cc2ccccc21 (stereo not given)
### Response 115 to 117 °C

### Prompt Look at this compound and give its reported melting point. `Clc1ccc(Nc2nnc(-c3cccc(Oc4ccc(Cl)c(Cl)c4)c3)s2)cc1Cl`
### Response 189 to 190 °C

### Prompt Recorded melting point for `NC(=S)Nc1ncccn1` , please?
### Response 262 to 264 °C

### Prompt Reported melting point, compound `N#Cc1cnn2c(-c3cccnc3)ccnc12` : ____
### Response 258 to 260 °C

### Prompt Value lookup for melting point; key = `CCCn1c(=O)c2[nH]c(C34CC5CC(CC(O)(C5)C3)C4)nc2n(CCC)c1=O`
### Response 213 to 214 °C
